Give melting point for every item shown.
Give bare numbers, in °C.

// solved cases for melting point follow
• CC(C)(C)c1nc2cc(S(=O)(=O)c3ccnc(F)c3)ccc2n1CCC1CCOCC1 [Co. No. 128] = 177.8
• CC(C)(C)c1nc2cc(S(=O)(=O)c3ccc(O)nc3)ccc2n1CC1CCOCC1 [Co. No. 1] = 251
• CC(C)(C)c1nc2cc(S(=O)(=O)c3ccc(C#N)s3)ccc2n1CC1CCOCC1 = 156
• CC(=O)NCCNc1cc(S(=O)(=O)c2ccc3c(c2)nc(C(C)(C)C)n3CC2CCOCC2)ccn1 [Co. No. 123] = 217.2
• COc1ccc(S(=O)(=O)c2ccc3c(c2)nc(C(C)(C)C#N)n3CC2CCOCC2)nn1 [Co. No. 92] = 161.1

Please look at the following molecule next.
Prompt: Item under review: CC(C)(C)c1nc2cc(S(=O)(=O)c3c(Cl)cncc3Cl)ccc2n1CC1CCOCC1 [Co. No. 84] . Reported melting point?
Completion: 242.9
